measured.quantity: logP

Brc1ccc(-c2cc3ccccn3c2)cc1 ... 5.43

I. Cc1ccc(-c2cc3ccccn3c2)cc1
II. c1ccn2cccc2c1
Which of the two items, I and II , has the greater recorded logP? Your answer should be the label of the entry you select.
I
(I: 4.96, II: 2.49)

---

measured.quantity: logP

Cc1cccc(-c2ccc3cccn3c2)c1 ... 4.87
Clc1cccc(-c2cc3ccccn3c2)c1 ... 5.14
Clc1ccc(-c2cc3ccccn3c2)cc1 ... 5.2
COc1ccc(-c2cc3ccccn3c2)cc1 ... 4.2
COc1cccc(-c2cc3ccccn3c2)c1 ... 4.14
Brc1cccc(-c2cc3ccccn3c2)c1 ... 5.31
c1ccc(-c2cc3ccccn3c2)cc1 ... 4.29
